Biological target: human PI3Kα (Homo sapiens (Human), UniProt P42336)
Sequence (P42336 whole entry): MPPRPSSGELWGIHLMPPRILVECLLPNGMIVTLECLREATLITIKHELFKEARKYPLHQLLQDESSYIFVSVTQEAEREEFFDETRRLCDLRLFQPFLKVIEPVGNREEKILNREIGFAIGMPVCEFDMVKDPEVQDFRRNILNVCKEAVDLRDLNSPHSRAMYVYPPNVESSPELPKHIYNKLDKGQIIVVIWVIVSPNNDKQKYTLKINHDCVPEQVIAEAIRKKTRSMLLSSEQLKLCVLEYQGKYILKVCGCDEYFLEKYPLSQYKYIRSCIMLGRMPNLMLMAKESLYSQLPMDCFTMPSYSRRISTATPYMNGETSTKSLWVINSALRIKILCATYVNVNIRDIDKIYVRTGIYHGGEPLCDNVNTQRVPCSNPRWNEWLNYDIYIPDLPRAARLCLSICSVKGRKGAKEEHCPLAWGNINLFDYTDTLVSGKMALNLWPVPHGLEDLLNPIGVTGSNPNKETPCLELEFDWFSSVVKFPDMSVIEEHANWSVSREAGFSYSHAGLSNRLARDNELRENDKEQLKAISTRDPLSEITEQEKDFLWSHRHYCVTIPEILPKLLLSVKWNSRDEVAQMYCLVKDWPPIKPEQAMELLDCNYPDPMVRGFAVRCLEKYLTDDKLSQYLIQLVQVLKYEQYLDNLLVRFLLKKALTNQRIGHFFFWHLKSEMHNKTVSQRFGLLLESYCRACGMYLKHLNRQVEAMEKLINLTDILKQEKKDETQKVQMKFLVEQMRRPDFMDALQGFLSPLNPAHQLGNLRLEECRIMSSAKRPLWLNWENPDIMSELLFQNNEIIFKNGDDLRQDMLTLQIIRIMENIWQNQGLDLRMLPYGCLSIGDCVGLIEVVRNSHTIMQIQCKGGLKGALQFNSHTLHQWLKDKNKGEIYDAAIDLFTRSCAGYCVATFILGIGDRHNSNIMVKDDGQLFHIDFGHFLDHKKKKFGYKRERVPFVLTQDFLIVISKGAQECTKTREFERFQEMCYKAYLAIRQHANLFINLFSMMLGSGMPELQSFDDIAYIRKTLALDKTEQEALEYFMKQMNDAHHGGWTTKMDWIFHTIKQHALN
Sequence (P27986 whole entry partner): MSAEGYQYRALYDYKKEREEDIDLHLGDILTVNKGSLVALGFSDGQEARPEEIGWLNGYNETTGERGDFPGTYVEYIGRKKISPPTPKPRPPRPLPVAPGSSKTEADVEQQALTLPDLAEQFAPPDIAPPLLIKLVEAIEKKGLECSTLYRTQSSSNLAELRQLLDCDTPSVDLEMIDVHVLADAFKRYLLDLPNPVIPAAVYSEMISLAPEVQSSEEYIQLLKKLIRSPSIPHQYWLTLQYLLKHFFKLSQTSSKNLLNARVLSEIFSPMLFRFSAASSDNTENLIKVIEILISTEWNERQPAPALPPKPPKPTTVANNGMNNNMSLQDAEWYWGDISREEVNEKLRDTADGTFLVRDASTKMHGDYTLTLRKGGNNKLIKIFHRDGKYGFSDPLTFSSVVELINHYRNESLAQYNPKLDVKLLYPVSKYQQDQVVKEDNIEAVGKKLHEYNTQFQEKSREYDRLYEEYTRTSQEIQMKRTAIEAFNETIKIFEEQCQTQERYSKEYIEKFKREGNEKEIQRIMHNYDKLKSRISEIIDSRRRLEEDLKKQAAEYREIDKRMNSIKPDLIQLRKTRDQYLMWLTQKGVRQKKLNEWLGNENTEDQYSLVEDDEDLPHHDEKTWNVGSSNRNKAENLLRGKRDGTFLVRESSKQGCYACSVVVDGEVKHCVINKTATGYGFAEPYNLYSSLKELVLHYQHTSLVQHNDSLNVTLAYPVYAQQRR
Assay: Human PI3Kα activity test (luciferin/luciferase ATP consumption, KinaseGlo)
Format: biochemical
Details: PI3Kα (p110α/p85α), 50 μM PIP2, 2 μM ATP, 90 minutes; read-out: IC50 Human PI3Kα
pIC50: −log10 of the molar value.
resultType: pIC50

These solved cases illustrate the format of a correct answer.
CCNC(=O)Nc1ccc(CCN2c3nc(N4C[C@@H]5C[C@H]4CO5)cc(=O)n3CC[C@H]2C(F)(F)F)cc1 [Compound 23]
5.98
O=c1cc(N2C[C@@H]3C[C@H]2CO3)nc2n1CC[C@@H](C(F)(F)F)N2CCC1(O)CCCC1 [Compound 100]
5.70
CC(C)(CN1c2nc(N3C[C@@H]4C[C@H]3CO4)cc(=O)n2CC[C@H]1C(F)(F)F)c1ccncc1 [Compound 1]
5.50

I = O=c1cc(N2C[C@@H]3C[C@H]2CO3)nc2n1CC[C@@H](C(F)(F)F)N2CCC(O)(C1CC1)C1CC1 [Compound 102]
II = O=c1cc(N2C[C@@H]3C[C@H]2CO3)nc2n1CC[C@@H](C(F)(F)F)N2CC(O)(C1CC1)C1CC1 [Compound 103]
Of I and II , which one carries the higher reported pIC50? Answer by quoting the chosen item's label. II

###

Target: human PI3Kα (Homo sapiens (Human))
Assay: Human PI3Kα activity test (luciferin/luciferase ATP consumption, KinaseGlo)
Format: biochemical
Conditions: PI3Kα (p110α/p85α), 50 μM PIP2, 2 μM ATP, 90 minutes; read-out: IC50 Human PI3Kα
pIC50: −log10 of the molar value.
resultType: pIC50

COc1ccc(CCN2c3nc(N4CC5CCC(C4)O5)cc(=O)n3CC[C@H]2C(F)(F)F)cc1 [Compound 81]
5.70

1 = O=c1cc(N2C[C@@H]3C[C@H]2CO3)nc2n1CC[C@@H](C(F)(F)F)N2Cc1cccc2cnccc12 [Compound 109]
2 = CN(C)CCOc1ccc(CCN2c3nc(N4CC5CCC(C4)O5)cc(=O)n3C[C@@]2(C)C(F)(F)F)cc1 [Compound 74]
Decide: 1 or 2 , by lowest recorded pIC50. Answer by quoting the chosen item's label. 1
(1: 5.11, 2: 6.09)

###

Biological target: human PI3Kα (Homo sapiens (Human))
Assay: Human PI3Kα activity test (luciferin/luciferase ATP consumption, KinaseGlo)
Format: biochemical
Conditions: PI3Kα (p110α/p85α), 50 μM PIP2, 2 μM ATP, 90 minutes; read-out: IC50 Human PI3Kα
resultType: IC50 (nM)

I = CN(C)CCCOc1ccc(CCN2c3nc(N4CC5CCC(C4)O5)cc(=O)n3C[C@@]2(C)C(F)(F)F)cc1
II = O=c1cc(N2CC3CCC(C2)O3)nc2n1CC[C@@H](C(F)(F)F)N2C[C@@H](O)c1ccccc1
Decide: I or II , by lowest recorded IC50. Answer by quoting the chosen item's label. I

###

Molecular target: human PI3Kα (Homo sapiens (Human))
Test: Human PI3Kα activity test (luciferin/luciferase ATP consumption, KinaseGlo)
Format: biochemical
Conditions: PI3Kα (p110α/p85α), 50 μM PIP2, 2 μM ATP, 90 minutes; read-out: IC50 Human PI3Kα
pIC50: −log10 of the molar value.
resultType: pIC50

These solved cases illustrate the format of a correct answer.
O=c1cc(N2C[C@@H]3C[C@H]2CO3)nc2n1CC[C@@H](C(F)(F)F)N2CC1(O)CCCC1
6.35
CC(C)(C)C(=O)CN1c2nc(N3C[C@@H]4C[C@H]3CO4)cc(=O)n2CC[C@H]1C(F)(F)F
5.10
C[C@@]1(C(F)(F)F)Cn2c(nc(N3CC4CCC(C3)O4)cc2=O)N1C[C@@H](O)c1ccccc1
5.80

I = C[C@@]1(C(F)(F)F)Cn2c(nc(N3CC4CCC(C3)O4)cc2=O)N1CCc1ccc(O)cc1
II = O=CN1CCC(CCN2c3nc(N4C[C@@H]5C[C@H]4CO5)cc(=O)n3CC[C@H]2C(F)(F)F)CC1
Of I and II , which one carries the higher reported pIC50? Answer by quoting the chosen item's label. I
(I: 6.14, II: 5.62)

###

Target: UniProt:P42336
Assay: Human PI3Kα activity test (luciferin/luciferase ATP consumption, KinaseGlo)
Assay type: biochemical
Conditions: PI3Kα (p110α/p85α), 50 μM PIP2, 2 μM ATP, 90 minutes; read-out: IC50 Human PI3Kα
pIC50: −log10 of the molar value.
resultType: pIC50

O=C(CN1c2nc(N3C[C@@H]4C[C@H]3CO4)cc(=O)n2CC[C@H]1C(F)(F)F)c1cnc2c(c1)OCCN2 [Compound 38]
5.24

A = O=CN1CCC(CN2c3nc(N4C[C@@H]5C[C@H]4CO5)cc(=O)n3CC[C@H]2C(F)(F)F)CC1 [Compound 95]
B = O=c1cc(N2CC3CCC(C2)O3)nc2n1CC[C@@H](C(F)(F)F)N2Cc1ccn(C(F)F)n1 [Compound 86]
Of A and B , which one carries the higher reported pIC50? Answer by quoting the chosen item's label. A

###

The reader will find reported pIC50 values listed item by item below.
Molecular target: UniProt:P42336
Experiment: Human PI3Kα activity test (luciferin/luciferase ATP consumption, KinaseGlo)
Type: biochemical
Settings: PI3Kα (p110α/p85α), 50 μM PIP2, 2 μM ATP, 90 minutes; read-out: IC50 Human PI3Kα
pIC50: −log10 of the molar value.

Cc1cncc(C(=O)CN2c3nc(N4C[C@@H]5C[C@H]4CO5)cc(=O)n3CC[C@H]2C(F)(F)F)c1
< 5.14
Cc1ccc(C(=O)CN2c3nc(N4C[C@@H]5C[C@H]4CO5)cc(=O)n3CC[C@H]2C(F)(F)F)cn1
< 5.00
CN(C)c1ccc(C(=O)CN2c3nc(N4C[C@@H]5C[C@H]4CO5)cc(=O)n3CC[C@H]2C(F)(F)F)cn1
< 5.00

If you can, please state the reported pIC50 value of Cc1c(C(=O)CN2c3nc(N4C[C@@H]5C[C@H]4CO5)cc(=O)n3CC[C@H]2C(F)(F)F)cnc(N)c1C . < 5.00

If you can, please state the reported pIC50 value of Cc1ccc(C(=O)CN2c3nc(N4C[C@@H]5C[C@H]4CO5)cc(=O)n3C[C@@]2(C)C(F)(F)F)cn1 . ≤ 5.00

If you can, please state the reported pIC50 value of O=C(CN1c2nc(N3C[C@@H]4C[C@H]3CO4)cc(=O)n2CC[C@H]1C(F)(F)F)c1ccc(N2CCOCC2)cc1 . 5.38

If you can, please state the reported pIC50 value of O=C(CN1c2nc(N3C[C@@H]4C[C@H]3CO4)cc(=O)n2CC[C@H]1C(F)(F)F)c1ccncc1 . ≤ 5.00

If you can, please state the reported pIC50 value of COc1ncccc1C(=O)CN1c2nc(N3C[C@@H]4C[C@H]3CO4)cc(=O)n2CC[C@H]1C(F)(F)F . < 5.00

If you can, please state the reported pIC50 value of Cc1ncsc1CCN1c2nc(N3C[C@@H]4C[C@H]3CO4)cc(=O)n2CC[C@H]1C(F)(F)F . 6.00

If you can, please state the reported pIC50 value of COc1ccc(CCN2c3nc(N4C[C@@H]5C[C@H]4CO5)cc(=O)n3C[C@@]2(C)C(F)(F)F)cc1 . 5.14

If you can, please state the reported pIC50 value of O=C(CN1c2nc(N3C[C@@H]4C[C@H]3CO4)cc(=O)n2CC[C@H]1C(F)(F)F)c1ccc(NC2CC2)nc1 . < 5.00

If you can, please state the reported pIC50 value of O=C(CN1c2nc(N3CC4CCC(C3)O4)cc(=O)n2CC[C@H]1C(F)(F)F)c1ccncc1 . ≤ 5.00

If you can, please state the reported pIC50 value of O=C(CN1c2nc(N3CC4CCC(C3)O4)cc(=O)n2CC[C@H]1C(F)(F)F)c1cccnc1 . ≤ 5.00

If you can, please state the reported pIC50 value of CNc1ccc(C(=O)CN2c3nc(N4C[C@@H]5C[C@H]4CO5)cc(=O)n3C[C@@]2(C)C(F)(F)F)cn1 . < 5.00

If you can, please state the reported pIC50 value of Cn1nccc1C(=O)CN1c2nc(N3C[C@@H]4C[C@H]3CO4)cc(=O)n2CC[C@H]1C(F)(F)F . < 5.00

If you can, please state the reported pIC50 value of O=c1cc(N2CC3CCC(C2)O3)nc2n1CC[C@@H](C(F)(F)F)N2CCCc1ccccc1 . 6.70

###

Target: human PI3Kα (Homo sapiens (Human))
Assay: Human PI3Kα activity test (luciferin/luciferase ATP consumption, KinaseGlo)
Type: biochemical
Conditions: PI3Kα (p110α/p85α), 50 μM PIP2, 2 μM ATP, 90 minutes; read-out: IC50 Human PI3Kα
pIC50: −log10 of the molar value.
resultType: pIC50

These solved cases illustrate the format of a correct answer.
O=c1cc(N2C[C@@H]3C[C@H]2CO3)nc2n1CC[C@@H](C(F)(F)F)N2CCc1cccnc1 [Compound 12]
5.54
CC(=O)N1CCC(CN2c3nc(N4C[C@@H]5C[C@H]4CO5)cc(=O)n3CC[C@H]2C(F)(F)F)CC1 [Compound 94]
6.89
CNc1ccc(C(=O)CN2c3nc(N4C[C@@H]5C[C@H]4CO5)cc(=O)n3CC[C@H]2C(F)(F)F)cn1 [Compound 5]
5.09

1 = O=c1cc(N2C[C@@H]3C[C@H]2CO3)nc2n1CC[C@@H](C(F)(F)F)N2CCC1(O)CC1 [Compound 105]
2 = O=C(CN1c2nc(N3C[C@@H]4C[C@H]3CO4)cc(=O)n2CC[C@H]1C(F)(F)F)c1ccccn1 [Compound 68]
Decide: 1 or 2 , by lowest recorded pIC50. Answer by quoting the chosen item's label. 2
